- assay.system: Fatty-acid amide hydrolase 1 (Homo sapiens) (UniProt O00519)
- Sequence (O00519 whole entry): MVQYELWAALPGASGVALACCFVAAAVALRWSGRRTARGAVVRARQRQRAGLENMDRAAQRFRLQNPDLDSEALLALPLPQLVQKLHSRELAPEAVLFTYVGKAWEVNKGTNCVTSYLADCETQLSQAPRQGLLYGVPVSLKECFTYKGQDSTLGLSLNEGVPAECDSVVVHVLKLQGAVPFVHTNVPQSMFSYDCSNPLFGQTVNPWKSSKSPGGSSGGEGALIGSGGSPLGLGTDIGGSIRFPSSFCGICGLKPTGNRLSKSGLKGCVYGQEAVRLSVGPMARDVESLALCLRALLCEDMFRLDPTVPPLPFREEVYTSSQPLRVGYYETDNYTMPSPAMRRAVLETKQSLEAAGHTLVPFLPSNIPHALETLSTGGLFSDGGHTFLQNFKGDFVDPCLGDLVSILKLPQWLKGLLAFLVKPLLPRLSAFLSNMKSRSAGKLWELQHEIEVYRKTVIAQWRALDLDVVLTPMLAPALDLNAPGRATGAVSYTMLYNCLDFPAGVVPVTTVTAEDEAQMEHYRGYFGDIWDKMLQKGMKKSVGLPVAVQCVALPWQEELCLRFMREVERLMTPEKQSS
- procedure.text: Inhibition of human recombinant FAAH overexpressed in African green monkey COS7 cells using [3H]-anandamide as substrate at 10 uM preincubated for 10 mins before substrate addition measured after 10 mins by liquid scintillation counting analysis relative to control
- Format: cell-based
- condition.context: COS-7
The source made the active and inactive calls. The calls are words filed in the database; no cut-off is given here.
observed.property: inhibition

In the examples that follow, each entry is paired with its recorded inhibition.
structure_smiles_string=COc1nn(C2CCCCC2)c(=O)o1 recorded_measurement=40%
structure_smiles_string=COc1nn(Cc2ccccc2)c(=O)o1 recorded_measurement=inactive
structure_smiles_string=COc1nn(Cc2cccc(-c3ccccc3)c2)c(=O)o1 recorded_measurement=46%
structure_smiles_string=COc1nn(C(C)C)c(=O)o1 recorded_measurement=12%

Now look at this entry.
Req: For Fatty-acid amide hydrolase 1 (Homo sapiens) (UniProt O00519), provide inhibition of COc1nn(C(c2ccccc2)c2ccccc2)c(=O)o1 please.
Resp: inactive

* * *

- assay.system: Monoacylglycerol lipase ABHD6 (Homo sapiens)
- procedure.text: Inhibition of human ABHD6 overexpressed in HEK293 cells assessed as 2-AG hydrolysis at 1 uM by fluorescent glycerol assay
- Assay type: cell-based
Activity calls are given as the source filed them. No cut-off for these calls is given here.
observed.property: inhibition

In the examples that follow, each entry is paired with its recorded inhibition.
compound="COc1nn(C(C)c2cccc(Oc3ccccc3)c2)c(=O)o1 (stereo not drawn)" observed_property=inhibition recorded_measurement=inactive
compound=COc1nn(Cc2ccc(CC(C)C)cc2)c(=O)o1 observed_property=inhibition recorded_measurement=inactive
compound=COc1nn(Cc2ccccc2)c(=O)o1 observed_property=inhibition recorded_measurement=inactive
compound=COc1nn(C(C)C)c(=O)o1 observed_property=inhibition recorded_measurement=inactive
compound=COc1nn(C(c2ccccc2)c2ccccc2)c(=O)o1 observed_property=inhibition recorded_measurement=inactive
compound=COc1nn([C@@H](C)c2ccc(CC(C)C)cc2)c(=O)o1 observed_property=inhibition recorded_measurement=inactive
compound=COc1nn(Cc2ccc(Oc3ccccc3)cc2)c(=O)o1 observed_property=inhibition recorded_measurement=inactive
compound=COc1nn(Cc2ccc(N(c3ccccc3)c3ccccc3)cc2)c(=O)o1 observed_property=inhibition recorded_measurement=inactive

Req: // returns reported inhibition for input COc1nn(Cc2cccc(Oc3ccccc3)c2)c(=O)o1
Resp: inactive

Req: Please do the same for COc1nn(Cc2cccc(-c3ccccc3)c2)c(=O)o1 as well.
Resp: inactive

Req: Please do the same for COc1nn(C(C)c2ccc(N(c3ccccc3)c3ccccc3)cc2)c(=O)o1 (racemic) as well.
Resp: inactive

Req: Please do the same for COc1nn([C@@H](C)c2ccc(N(c3ccccc3)c3ccccc3)cc2)c(=O)o1 as well.
Resp: inactive

Req: Please do the same for COc1nn(Cc2ccccc2Oc2ccccc2)c(=O)o1 as well.
Resp: inactive

* * *

- assay.system: Fatty-acid amide hydrolase 1 (Homo sapiens)
- procedure.text: Inhibition of human recombinant FAAH overexpressed in African green monkey COS7 cells using [3H]-anandamide as substrate preincubated for 10 mins before substrate addition measured after 10 mins by liquid scintillation counting analysis
- Type: cell-based, COS-7
- condition.context: read-out: IC50
This listing pairs compounds with measured pIC50.
Formally, pIC50 is defined as -log10 of the concentration c, with c in mol/L.

compound="COc1nn(C(C)c2ccc(N(c3ccccc3)c3ccccc3)cc2)c(=O)o1 (racemic)" recorded_measurement=6.92
compound=COc1nn([C@@H](C)c2ccc(-c3ccccc3)cc2)c(=O)o1 recorded_measurement=7.64
compound=COc1nn([C@@H](C)c2ccc(CC(C)C)cc2)c(=O)o1 recorded_measurement=7.96
compound=COc1nn([C@H](C)c2ccc(N(c3ccccc3)c3ccccc3)cc2)c(=O)o1 recorded_measurement=5.20
compound=COc1nn(Cc2ccccc2Oc2ccccc2)c(=O)o1 recorded_measurement=5.20
compound="COc1nn(C(C)c2ccccc2)c(=O)o1 (centres undefined)" recorded_measurement=5.22
compound=O=C(Nc1ccccc1)N1CCC(Cc2ccc3ccccc3n2)CC1 recorded_measurement=6.49
compound=COc1nn(Cc2cccc(Oc3ccccc3)c2)c(=O)o1 recorded_measurement=6.01

Now look at this entry.
Req: // returns reported pIC50 for input COc1nn(C(C)c2cccc(Oc3ccccc3)c2)c(=O)o1 (centres undefined)
Resp: 5.28
